Measured values drawn from ChEMBL document CHEMBL3433997 for this set.

Would you kindly list inhibition for each of these molecules?
tested_target: Glucose transporter (Leishmania mexicana)
run_description: ST_JUDE_LEISH: Cytotoxicity at 2uM final concentration against transgenic Leishmania Mexicana promastigotes LmGT2 that are glucose transport deficient and complemented with the L. Mexicana glucose transporter 2. Activity is measured by DNA content using SYBR green in vitro
Type: functional
One number for each entry, in %.

COc1ccc(Cn2c(SCc3ccc(C)cc3)nc3cc(OC)c(OC)cc3c2=N)cc1Cl: -2.37

Count: 6. Required value per item: inhibition.
1. Cc1cc(NC(=O)NCCN2CCC(NC(=O)c3ccc(F)cc3)CC2)c2ccccc2n1
2. CS(=O)(=O)CCNCc1ccc(-c2ccc3c(Nc4ccc(Cl)cc4F)ccnc3c2)o1
3. Fc1ccc2[nH]c(-c3ccc(-c4ccc(CN5CCC(CCN6CCCCC6)CC5)cc4)s3)nc2c1
4. N#Cc1ccc(N[C@@H](CC2CCCCC2)C(=O)N[C@@H]2CCCc3ccccc32)c2ccccc12
5. Cc1cc2c3c(N)nc(N)nc3ccc2n1C(C)C
6. CN1CCC(NCc2ccc(-c3ccc(Cl)cc3)cc2)CC1

# output
1: -3.5; 2: 4.36; 3: 4.98; 4: 0.82; 5: 67.2; 6: 4.44

Batch of 4 molecules: report inhibition for each.
1. COc1ccc2ccccc2c1CON1C(=N)N=C(N)NC1(C)C
2. COc1ccc(CCn2c(=N)c(C(=O)NCc3ccccc3)cc3c(=O)n4ccccc4nc32)cc1
3. O=C(O)c1ccc(NC(=O)C2CC(=O)N(Cc3ccc(Cl)cc3)C(=Nc3ccc(Cl)cc3)S2)cc1 (centres undefined)
4. COc1ccc(NC(=O)N2CCCN(CCCCCNC(=O)/C=C/c3ccc(C(F)(F)F)cc3)CC2)cc1Cl

# output
1: 1.5; 2: 8.6; 3: 1.01; 4: 2.8

Batch: inhibition for all items listed.
1. COc1cccc(OCC2CCCN(CCCCNC(=O)c3ccc(NC(=O)c4ccc(Cl)cc4)cc3)C2)c1 (centres undefined)
2. COc1cc(CNc2ccc(N3CCCC3)cc2)cc(Cl)c1OC
3. Cc1cccc2nc(-c3ccc(-c4cccc(CN5CCC(CO)CC5)c4)s3)[nH]c12

# output
[-1.92, 1.78, 1.75]

====

tested_target: Hexose transporter 1 (Plasmodium falciparum)
run_description: ST_JUDE_LEISH: Cytotoxicity at 2uM final concentration against transgenic Leishmania Mexicana promastigotes LmPfHT that are glucose transport deficient and complemented with the Plasmodium falciparum hexose transporter. Activity is measured by DNA content using SYBR green in vitro
Format: functional
quantity_name: inhibition (%)
Numbers only, in %.

// for each compound in input: emit inhibition
1. CCCOc1ccc(-c2nonc2NC(=O)c2cccc(OC)c2)cc1OCCC
2. OC(c1cc(C(F)(F)F)nc2c(F)cccc12)C1CCCCN1 (centres undefined)
3. Cc1cccn2c(=O)c3cc(C(=O)NC(C)c4ccccc4)c(=N)n(CCc4ccccc4)c3nc12 (centres undefined)
4. CCN(CC)CCN(Cc1ccc(-c2ccc(Br)cc2)cc1)C(=O)Cn1c(CCc2cccc(F)c2F)nc(=O)c2ccccc21
5. O=C(NCC1CCC(C(=O)O)CC1)c1ccc(/C=C/C(=O)N2CCc3ccccc3C2c2ccc3c(c2)OCO3)cc1 (centres undefined)
6. Cc1csc2nc(C(C)c3ccc(NC(=O)c4cccs4)cc3)oc(=O)c12 (centres undefined)
7. O=c1c2ccccc2[nH]c2nc3ccccc3c(Nc3ccccc3)c12
8. Oc1ccccc1CCNC1CCc2ccccc2C1 (centres undefined)

# output
1. 10.9
2. 1.52
3. 16.8
4. 3.29
5. 1.62
6. -0.57
7. 12.5
8. 5.27

For each of the items listed, what is its inhibition?
1. Cc1ccc(-c2nc(N3CCN(C(=O)c4ccco4)CC3)c3ccc(Cl)cc3n2)cc1
2. CCOC(=O)c1ccc(NC(=O)NC2CCN(CCCCCNC(=O)/C=C/c3ccc(Cl)c(Cl)c3)C2)cc1 (centres undefined)

# output
1. 2.21
2. 0

Your task in this section: give inhibition for each listed record.
1. O=C(O)c1ccc2c(c1)N(C(=O)CNCc1ccc(F)cc1)CC(=O)N2CCCc1ccccc1
2. COc1ccc2nccc([C@@H](O)CN3CCC(NC(=O)/C=C/c4cc(F)cc(NC(C)=O)c4)CC3)c2c1
3. CC[C@@H]([C@@H](CC(C)C)C(=O)N[C@@H](CCCCNC(=O)OCc1ccccc1)C(=O)Nc1ccccn1)N(O)C=O
4. CCc1cn2c3c(cc(C(=O)N[C@@H](Cc4ccccc4)[C@H](O)CNC(C)(C)c4cccc(OC)c4)cc13)N(C)S(=O)(=O)C2
5. COc1ccc(O)c(C(=O)NCCc2ccc(OC)c(-c3ccc(C(C)(C)C)cc3)c2)c1
6. O=C(Nc1ccc(-c2cccc(-c3nc4ccccc4[nH]3)c2)cc1)Nc1ccc(F)c(F)c1F
7. CC1CN(Cc2csc(Nc3ccccc3)n2)CC(C)O1 (centres undefined)
8. CCN(CC)CCOc1ccc(N(Cc2ccc(C(C)(C)C)cc2)C(=O)c2ccc(Cc3ccccc3)cc2)cc1OC

# output
1. -1.82
2. 2.3
3. 4.71
4. 1.91
5. 5.01
6. -0.07
7. 0.99
8. 14.8

====

tested_target: Hexose transporter 1 (Plasmodium falciparum)
run_description: ST_JUDE_LEISH: Cytotoxicity at 2uM final concentration against transgenic Leishmania Mexicana promastigotes LmPfHT that are glucose transport deficient and complemented with the Plasmodium falciparum hexose transporter. Activity is measured by DNA content using SYBR green in vitro
Format: functional
Hi there, I'd appreciate the recorded inhibition for every entry that follows.
Numbers only, in %.

Cc1cccc2nc(-c3cccc(-c4ccc(NC(=O)c5cccnc5)cc4)c3)[nH]c12: 4.09

Report inhibition for each item below.
1. CS(=O)(=O)c1ccc(CCNCc2ccc(-c3ccc(CNC4CCN(Cc5ccccc5)CC4)cc3)nc2)cc1
2. COc1cccc(NC(=O)Cn2c(C)c(C#N)c3ccccc32)c1
3. COc1ccc2nccc([C@@H](O)CN3CCC(NC(=O)C(c4cc5ccccc5s4)N4CC(C)OC(C)C4)CC3)c2c1 (stereo partly drawn)
4. S=C(NCCN1CCOCC1)Nc1ccccc1

# output
1: -1.16; 2: 5; 3: 2.81; 4: 0.47

Please look at the items below and tell me inhibition for each one, in order.
1. c1cc(CNCC2CCCO2)cc(-c2csc(-c3nc4ccccc4[nH]3)c2)c1 (stereo not drawn)
2. N#Cc1cccc(Nc2nccc(Nc3ccc(Oc4ccccc4)cc3)n2)c1
3. CCCCC1(NC(=O)[C@@H](Nc2ccc(C#N)c3ccccc23)C2CCCCC2)CCCCC1

# output
2.45
5.4
-0.56

Go through the items and report each one's inhibition.
1. Clc1ccc2nnc(-c3c(Cl)cccc3Cl)n2n1
2. CCS[C@@H]1O[C@H](COC(=O)c2ccccc2)[C@H](OC(=O)c2ccccc2)[C@H](OC(=O)c2ccccc2)[C@H]1OC(=O)c1ccccc1
3. CCCCCCOc1ccc(/C(N)=N\Cc2ccccc2)c2c1CCCC2
4. CC(C)CCNC(=O)C1Cc2c([nH]c3cc(Br)ccc23)C2(CCN(Cc3ccccc3)CC2)N1 (stereo not drawn)
5. COc1ccccc1N1CCN(C(C(=O)NCc2cccc(F)c2)c2ccc(C)cc2)CC1 (stereo not drawn)
6. COc1cc(F)c2ncc(Cl)c(CCN3CCC(NCc4ccc5c(c4)NC(=O)CS5)CC3)c2c1
7. N#C/N=C(\NCCCCCCCCN/C(=N\C#N)NCCSCc1csc(N=C(N)N)n1)NCCCSc1csc(N=C(N)N)n1
8. Nc1ccn([C@@H]2O[C@H](COC(c3ccccc3)(c3ccccc3)c3ccccc3)[C@@H](O)[C@@H]2O)c(=O)n1

# output
1: 4.09; 2: 4.06; 3: 3.36; 4: 11.3; 5: 3.56; 6: 18.3; 7: 0.11; 8: 4.86

Give inhibition for each of the items listed below.
1. CSC1=NC(=Nc2ccccc2C)C2(CCC(C(C)(C)C)CC2)N1c1ccccc1Cl (stereo not drawn)
2. CS(=O)(=O)c1ccc(-c2cc(C(F)(F)F)nc(N[C@@H]3CCCC[C@H]3OCc3ccccc3)n2)cc1

# output
-3.95
1.84

====

Consider the following compounds; for each one, report its inhibition.
tested_target: Hexose transporter 1 (Plasmodium falciparum) (UniProt O97467)
run_description: ST_JUDE_LEISH: Cytotoxicity at 2uM final concentration against transgenic Leishmania Mexicana promastigotes LmPfHT that are glucose transport deficient and complemented with the Plasmodium falciparum hexose transporter. Activity is measured by DNA content using SYBR green in vitro
Assay type: functional
Numbers only, in %.

O=C(Cn1c(CCc2cccc(F)c2F)cc(=O)c2ccccc21)N(CCN1CCCCC1)Cc1ccc(-c2ccc(C(F)(F)F)cc2)cc1: 5.08
CCCc1cc(NC2CCN(C)CC2)nc(Nc2ccc(F)cc2)n1: 6.83
CCCCOc1ccc(C(=O)C(CCC(CNC(C)(C)C)C(=O)c2ccc(OCCCC)cc2)CNC(C)(C)C)cc1 (centres undefined): 12.2
COc1cccc(CNC(=O)c2ccnc(-c3ccc(CNCCOc4ccccc4)cc3)c2)c1: 1.69
Cc1noc(C)c1-c1cccc(CNCc2ccc(-c3cccc(-c4nc5ccccc5[nH]4)c3)cc2)c1: -1.65
Cc1[nH]c(C)c(-c2ccc(-c3ccc(C#N)cc3)nc2)c(=O)c1Br: 10.2

Would you mind listing inhibition for each of the following compounds?
1. CCOc1cc(C(=O)Nc2ccc3nc(N(CC)CC)cc(C)c3c2)cc(OCC)c1OCC
2. COc1cc(C(=O)NC2CCN(Cc3ccccc3)CC2)ccc1-c1nc2cc(Cl)c(C)cc2[nH]1
3. S=C(Nc1cccc(Cl)c1)NC1CCN(c2ccnc3cc(Cl)ccc23)C1 (centres undefined)

# output
1. -0.88
2. 9.26
3. 9.65

Give me inhibition for each of these compounds, listed below.
1. N=C(N)NC(=O)Nc1cc(Br)c(Cl)c(C(F)(F)F)c1
2. CCC[C@@H]([C@@H](CC1CCCCC1)C(=O)NC(C(=O)Nc1nccs1)C(CC)c1ccccc1)N(O)C=O (some centres undefined)

# output
1. 3.32
2. 0.04

For every record below, what is its inhibition?
1. COc1ccc2[nH]ccc(=NN=Cc3ccc(Cl)cc3)c2c1
2. CCC(O)(C#Cc1c(C)nc(N)nc1N)CC
3. O=c1[nH]c2ccc(Nc3nccc(NCCc4ccccc4)n3)cc2[nH]1
4. N#Cc1cccc(Nc2ncc3c(-c4cccc(NC(=O)Cc5cccc(Cl)c5)c4)c[nH]c3n2)c1
5. c1ccc(-c2nc(Nc3ccncc3)sc2-c2ccccc2)cc1
6. O=C(N[C@@H](Cc1ccccc1)C(=O)NCCN1CCCC1)c1ccc(O)c(-c2ccc(Cl)c(Cl)c2)c1
7. O=C(Nc1cccc(CN2CCCN(CC3CCCCC3)CC2)c1)c1ccc(Cl)c(Cl)c1
8. CC(=O)c1c(C)[nH]c(C(=O)Nc2ccc(-c3nc4ccc(C)cc4s3)cc2)c1C

# output
1: 3.19; 2: 2.72; 3: 4.94; 4: 2.53; 5: 4.94; 6: 3.32; 7: 12.2; 8: -4.21
